# PROTOCOL CONDITIONS: Chondroitin Sulfate A 5-0.019 mg/ml, 3 μM probe, probe-specific excitation λ, emission 545 nm
QUANTITY: RFU change (Correlation analysis)

[[record]]
compound = "O=C([O-])CC[C@H](NC(=O)Cc1cc(-c2cccs2)sc1-c1ccc(-c2sc(-c3cccs3)cc2CC(=O)N[C@@H](CCC(=O)[O-])C(=O)[O-])s1)C(=O)[O-].[Na+].[Na+].[Na+].[Na+]"
reported_value = "Unclear"

[[record]]
compound = "Cl.Cl.c1csc(-c2cc(CCn3ccnc3)c(-c3ccc(-c4sc(-c5cccs5)cc4CCn4ccnc4)s3)s2)c1 [pHTIm, penta Hydrogen Thiophene Imidazole]"
reported_value = "Increases"

[[record]]
compound = "O=C(Cc1cc(-c2cccs2)sc1-c1ccc(-c2sc(-c3cccs3)cc2CC(=O)N[C@@H](Cc2ccc([O-])cc2)C(=O)[O-])s1)N[C@@H](Cc1ccc([O-])cc1)C(=O)[O-].[Na+].[Na+].[Na+].[Na+]"
reported_value = "Increases"

[[record]]
compound = "NCCCC[C@H](NC(=O)Cc1cc(-c2cccs2)sc1-c1ccc(-c2sc(-c3cccs3)cc2CC(=O)N[C@@H](CCCCN)C(=O)[O-])s1)C(=O)[O-].[Na+].[Na+]"
reported_value = "Increases"

[[record]]
compound = "Cl.Cl.N=C(N)NCCC[C@H](NC(=O)Cc1cc(-c2cccs2)sc1-c1ccc(-c2sc(-c3cccs3)cc2CC(=O)N[C@@H](CCCNC(=N)N)C(=O)O)s1)C(=O)O"
reported_value = "Increases"

[[record]]
compound = "Cl.Cl.NCCc1cc(-c2cccs2)sc1-c1ccc(-c2sc(-c3cccs3)cc2CCN)s1 [pHTEA, penta Hydrogen Thiophene Ethanol Amine]"
reported_value = "Increases"

[[record]]
compound = "Cl.Cl.O=C(Cc1cc(-c2cccs2)sc1-c1ccc(-c2sc(-c3cccs3)cc2CC(=O)NCCc2c[nH]cn2)s1)NCCc1c[nH]cn1"
reported_value = "Increases"

[[record]]
compound = "O=C([O-])C[C@H](NC(=O)Cc1cc(-c2cccs2)sc1-c1ccc(-c2sc(-c3cccs3)cc2CC(=O)N[C@@H](CC(=O)[O-])C(=O)[O-])s1)C(=O)[O-].[Na+].[Na+].[Na+].[Na+]"
reported_value = "Unclear"


###

# PROTOCOL CONDITIONS: to cellulobiose
QUANTITY: Sensitivity

[[record]]
compound = "Cl.Cl.O=C(Cc1cc(-c2cccs2)sc1-c1ccc(-c2sc(-c3cccs3)cc2CC(=O)NCCc2c[nH]cn2)s1)NCCc1c[nH]cn1 [pHTA-His]"
reported_value = "No"

[[record]]
compound = "Cl.Cl.c1csc(-c2cc(CCn3ccnc3)c(-c3ccc(-c4sc(-c5cccs5)cc4CCn4ccnc4)s3)s2)c1 [pHTIm, penta Hydrogen Thiophene Imidazole]"
reported_value = "No"

[[record]]
compound = "O=C(Cc1cc(-c2cccs2)sc1-c1ccc(-c2sc(-c3cccs3)cc2CC(=O)N[C@@H](Cc2ccc([O-])cc2)C(=O)[O-])s1)N[C@@H](Cc1ccc([O-])cc1)C(=O)[O-].[Na+].[Na+].[Na+].[Na+] [pHTA-Tyr]"
reported_value = "Yes"


###

# PROTOCOL CONDITIONS: amylose concentration vs RFU, linear regression
QUANTITY: Linear relationship

[[record]]
molecule = "Cl.Cl.c1csc(-c2cc(CCn3ccnc3)c(-c3ccc(-c4sc(-c5cccs5)cc4CCn4ccnc4)s3)s2)c1 [pHTIm, penta Hydrogen Thiophene Imidazole]"
reported_value = "Significant"

[[record]]
molecule = "Cl.Cl.NCCc1cc(-c2cccs2)sc1-c1ccc(-c2sc(-c3cccs3)cc2CCN)s1 [pHTEA, penta Hydrogen Thiophene Ethanol Amine]"
reported_value = "Significant"

[[record]]
molecule = "NCCCC[C@H](NC(=O)Cc1cc(-c2cccs2)sc1-c1ccc(-c2sc(-c3cccs3)cc2CC(=O)N[C@@H](CCCCN)C(=O)[O-])s1)C(=O)[O-].[Na+].[Na+] [pHTA-Lys]"
reported_value = "Significant"

[[record]]
molecule = "Cl.Cl.O=C(Cc1cc(-c2cccs2)sc1-c1ccc(-c2sc(-c3cccs3)cc2CC(=O)NCCc2c[nH]cn2)s1)NCCc1c[nH]cn1 [pHTA-His]"
reported_value = "Significant"


###

# PROTOCOL CONDITIONS: β-1,3-glucan concentration vs RFU, linear regression
QUANTITY: Quality of Gradient

[[record]]
compound = "O=C(Cc1cc(-c2cccs2)sc1-c1ccc(-c2sc(-c3cccs3)cc2CC(=O)N[C@@H](Cc2ccc([O-])cc2)C(=O)[O-])s1)N[C@@H](Cc1ccc([O-])cc1)C(=O)[O-].[Na+].[Na+].[Na+].[Na+] [pHTA-Tyr]"
quantity = "Quality of Gradient"
reported_value = "Horizontal"

[[record]]
compound = "Cl.Cl.c1csc(-c2cc(CCn3ccnc3)c(-c3ccc(-c4sc(-c5cccs5)cc4CCn4ccnc4)s3)s2)c1 [pHTIm, penta Hydrogen Thiophene Imidazole]"
quantity = "Quality of Gradient"
reported_value = "Horizontal"

[[record]]
compound = "NCCCC[C@H](NC(=O)Cc1cc(-c2cccs2)sc1-c1ccc(-c2sc(-c3cccs3)cc2CC(=O)N[C@@H](CCCCN)C(=O)[O-])s1)C(=O)[O-].[Na+].[Na+] [pHTA-Lys]"
quantity = "Quality of Gradient"
reported_value = "Positive"

[[record]]
compound = "O=C([O-])C[C@H](NC(=O)Cc1cc(-c2cccs2)sc1-c1ccc(-c2sc(-c3cccs3)cc2CC(=O)N[C@@H](CC(=O)[O-])C(=O)[O-])s1)C(=O)[O-].[Na+].[Na+].[Na+].[Na+] [pHTA-Asp]"
quantity = "Quality of Gradient"
reported_value = "Negative"

[[record]]
compound = "Cl.Cl.O=C(Cc1cc(-c2cccs2)sc1-c1ccc(-c2sc(-c3cccs3)cc2CC(=O)NCCc2c[nH]cn2)s1)NCCc1c[nH]cn1 [pHTA-His]"
quantity = "Quality of Gradient"
reported_value = "Horizontal"

[[record]]
compound = "O=C([O-])CC[C@H](NC(=O)Cc1cc(-c2cccs2)sc1-c1ccc(-c2sc(-c3cccs3)cc2CC(=O)N[C@@H](CCC(=O)[O-])C(=O)[O-])s1)C(=O)[O-].[Na+].[Na+].[Na+].[Na+] [pHTA-Glu]"
quantity = "Quality of Gradient"
reported_value = "Negative"

[[record]]
compound = "Cl.Cl.N=C(N)NCCC[C@H](NC(=O)Cc1cc(-c2cccs2)sc1-c1ccc(-c2sc(-c3cccs3)cc2CC(=O)N[C@@H](CCCNC(=N)N)C(=O)O)s1)C(=O)O [pHTA-Arg]"
quantity = "Quality of Gradient"
reported_value = "Positive"

[[record]]
compound = "Cl.Cl.NCCc1cc(-c2cccs2)sc1-c1ccc(-c2sc(-c3cccs3)cc2CCN)s1 [pHTEA, penta Hydrogen Thiophene Ethanol Amine]"
quantity = "Quality of Gradient"
reported_value = "Negative"


###

# PROTOCOL CONDITIONS: Cellulose 10-[…], 3 μM probe, spectral analysis, Excitation 300-500, Emission 545
QUANTITY: RFU change (Signal deviation with increasing [Carbohydrate])

[[record]]
molecule = "Cl.Cl.O=C(Cc1cc(-c2cccs2)sc1-c1ccc(-c2sc(-c3cccs3)cc2CC(=O)NCCc2c[nH]cn2)s1)NCCc1c[nH]cn1 [pHTA-His]"
reported_value = "Increase"

[[record]]
molecule = "NCCCC[C@H](NC(=O)Cc1cc(-c2cccs2)sc1-c1ccc(-c2sc(-c3cccs3)cc2CC(=O)N[C@@H](CCCCN)C(=O)[O-])s1)C(=O)[O-].[Na+].[Na+] [pHTA-Lys]"
reported_value = "Increase"

[[record]]
molecule = "Cl.Cl.c1csc(-c2cc(CCn3ccnc3)c(-c3ccc(-c4sc(-c5cccs5)cc4CCn4ccnc4)s3)s2)c1 [pHTIm, penta Hydrogen Thiophene Imidazole]"
reported_value = "Increase"


###

# PROTOCOL CONDITIONS: Chondroitin Sulfate A 5-0.019 mg/ml, 3 μM probe, spectral analysis, Excitation 300-500, Emission 545
# Experimental: The excitation spectrum of the probe was analyzed for wavelengths 300-500 nm with emission read at 545 nm. 3 μM of each probe was applied to serial two fold dilutions of the carbohydrate. Respective probes were excited at wavelengths unique to each probe (specified in figure), and emission was read at 545 nm. […] The excitation wavelength (emission detected at 545 nm) selected for each LCO is either (1) the λmax, or (2) the excitation wavelength which suffers the lowest background. […]
QUANTITY: λmax change

[[record]]
compound = "Cl.Cl.N=C(N)NCCC[C@H](NC(=O)Cc1cc(-c2cccs2)sc1-c1ccc(-c2sc(-c3cccs3)cc2CC(=O)N[C@@H](CCCNC(=N)N)C(=O)O)s1)C(=O)O"
reported_value = "No change"

[[record]]
compound = "O=C([O-])CC[C@H](NC(=O)Cc1cc(-c2cccs2)sc1-c1ccc(-c2sc(-c3cccs3)cc2CC(=O)N[C@@H](CCC(=O)[O-])C(=O)[O-])s1)C(=O)[O-].[Na+].[Na+].[Na+].[Na+]"
reported_value = "No change"

[[record]]
compound = "O=C(Cc1cc(-c2cccs2)sc1-c1ccc(-c2sc(-c3cccs3)cc2CC(=O)N[C@@H](Cc2ccc([O-])cc2)C(=O)[O-])s1)N[C@@H](Cc1ccc([O-])cc1)C(=O)[O-].[Na+].[Na+].[Na+].[Na+]"
reported_value = "No change"

[[record]]
compound = "Cl.Cl.NCCc1cc(-c2cccs2)sc1-c1ccc(-c2sc(-c3cccs3)cc2CCN)s1 [pHTEA, penta Hydrogen Thiophene Ethanol Amine]"
reported_value = "Redshift"

[[record]]
compound = "Cl.Cl.c1csc(-c2cc(CCn3ccnc3)c(-c3ccc(-c4sc(-c5cccs5)cc4CCn4ccnc4)s3)s2)c1 [pHTIm, penta Hydrogen Thiophene Imidazole]"
reported_value = "Redshift"

[[record]]
compound = "O=C([O-])C[C@H](NC(=O)Cc1cc(-c2cccs2)sc1-c1ccc(-c2sc(-c3cccs3)cc2CC(=O)N[C@@H](CC(=O)[O-])C(=O)[O-])s1)C(=O)[O-].[Na+].[Na+].[Na+].[Na+]"
reported_value = "No change"

[[record]]
compound = "NCCCC[C@H](NC(=O)Cc1cc(-c2cccs2)sc1-c1ccc(-c2sc(-c3cccs3)cc2CC(=O)N[C@@H](CCCCN)C(=O)[O-])s1)C(=O)[O-].[Na+].[Na+]"
reported_value = "No change"


Attribution: patent US9958439B2
